Reference for the values: the RNAGym collection of RNA variant scans (doi:10.7554/elife.90254)

B1: LINE1-full (parent)
chain: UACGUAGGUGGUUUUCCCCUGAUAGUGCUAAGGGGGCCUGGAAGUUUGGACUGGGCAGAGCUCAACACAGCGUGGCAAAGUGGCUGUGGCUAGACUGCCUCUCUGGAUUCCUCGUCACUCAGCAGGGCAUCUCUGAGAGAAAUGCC

variants of: B1; test: self-cleavage, relative activity (ratio to wild type); higher = more cleavage; in vitro, sequencing; the parent is a self-cleaving ribozyme
Cut-off 0.9 on self-cleavage, inclusive. At or above means rule met; below means rule not met.

{"columns": ["sequence-string", "assigned-class"],
 "data": [
  ["UACGUAGGUGGUUUUCCCCUGAUAGUGCUAAGGGGGCCUGGAAGUUUGGACUGGGCAUAGCUCAACACAGCGUGGCAAAGUGGCUGUGGCUAGACUGCCUCUCUGGAUUCCUCGUCACUCAGCCGGGCAUCUCUGAGAGAAAUGCC [G58U A124C]", "rule not met"],
  ["UACGUAGGUGGUUUUCCCCUGAUAGUGCUAAGGGGGCCUGGAAGUUUGGACUGGGCAGAGCUCAACACAGCGUGGCAAAGUGGCUGUGGCUAGACUGCCUCUCUGGAUUCCUCGCCACUCAGCAGGGCAUCUCUGAGAGUAAUGCC [U115C A140U]", "rule met"],
  ["UACGUAGGUGGUUUUCCCCUGAUAGUACUAAGGGGGCCUGGAAGUUUGGACUGAGCAGAGCUCAACACAGCGUGGCAAAGUGGCUGUGGCUAGACUGCCUCUCUGGAUUCCUCGUCACUCAGCAGGGCAUCUCUGAGAGAAAUGCC [G27A G54A]", "rule not met"]
]}

Consider the record given below.
Please check the record UACGUAGGUGGUUUUCCCCUGAUAGUGCUAAGGGGGCCUGGAAGUUUGGACUGGGCAGAGCUCAACACAGCGUGACAAAGUGGCUGUGGCUAGACUGCCUCUCUGGAUUCCUCGUCACCCAGCAGGGCAUCUCUGAGAGAAAUGCC [G75A U119C] and state if its self-cleavage is at or above 0.9.
rule met
